Tested on: MOLT-4 leukemia
Experiment: NCI-60 one-dose screen, 48 h
Details: 10 µM unless noted
Compounds without any hit were thinned out: in the full panel of roughly 83,000, 20% have a hit. The source made the active and inactive calls. How the source made its calls: active means growth percent below 10; inactive means the rest.
Labels: t (active), f (inactive)

* Cc1nc2cc(O)c(O)cc2cc1Oc1ccc(NC(=O)Nc2ccc(Cl)c(Cl)c2)cc1 | f
* COC(=O)CC[C@@H]1O[C@@H](c2ccc(F)cc2)[C@@H](O)[C@H]1O | f
* Cc1ccc(-c2nc(-c3cn(C)c4ncccc34)cs2)cc1 | f
* CC1(C)[C@@H](O[C@@H]2OC[C@@H](O[C@@H]3O[C@H](CO)[C@@H](O)[C@H](O)[C@H]3O[C@@H]3OC[C@@H](O)[C@H](O)[C@H]3O)[C@H](O)[C@H]2O[C@@H]2O[C@H](CO)[C@@H](O)[C@H](O)[C@H]2O)CC[C@]2(C)[C@H]3CC[C@]45OC[C@@]6(CC[C@](C)(C=O)C[C@H]64)[C@H](O)C[C@@]5(C)[C@]3(C)CC[C@@H]12 | t
* CN1CCN(C(=S)SCCCCOc2cc(=O)oc3ccccc23)CC1 | f
* CSC(SC)=C(C#N)c1nc2ccccc2s1 | f
* CC1(C)CC[C@]23CC[C@]4(C)[C@H](CC[C@@H]5[C@@]6(C)C/C(=C/c7ccncc7)C(=O)C(C)(C)[C@@H]6CC[C@]54C)[C@H]2[C@H]1OC3 | f
